assayed_target: GPNMB-V5His (recombinant human GPNMB extracellular domain with C-terminal V5-His tag) (human) (UniProt Q14956)
assay_notes: ELISA, coated GPNMB, Ab 111 ng/mL
Here, each record is paired with measured Avg OD data.
# output: bare number, implied unit OD

The examples below pair each entry with its known result.
>  <binder>
2-15 (hybridoma of Table 6) (antibody, V domains shown) VH: QVQLVESGGGVVQPGRSLRLSCAASGFTFSNYGIHWVRQAPGKGLEWVAVIWFDGRNKYYADSVKGRFTISRDNSKNTLYLQMNSLRAEDAAVYYCARDPFDYGDSFFDYWGQGTLVTVSS VL: LTQSPSSLSASVRDRVTITCRASQDISNYLAWYQQKPGKVPNLLIYAASTLQSGVPSRFSGSGSGTDFTLTISSLQPEDVATYYCQKYNSAPLTFGGGTKVEIKR

>  <Avg OD / OD>
0.395

$$$$
>  <binder>
2-22 (hybridoma of Table 6) (antibody, V domains shown) VH: QVQLEQSGPGLVKPSQNLSLTCTVSGGSISSGGYFWSWIRQHPGKGLEWIGYIYYSGNTYYNPSLKSRVTISVDTSKNQFSLKLSSVTAADTAVYYCARDYYYDTSGFSYRYDWYYGMDVWGQGTTVTVSS VL: DIQLTQSPSSLSASVGDRVTITCRASQGIRNDLGWYQQKPGKAPKRLIYAASSLQNGVPSRFSGSGSGTEFTLTISSLQPEDFATYYCLQHNTYPAFGQGTKVEIKR

>  <Avg OD / OD>
0.355

$$$$

## Input Query (binder): 2-16 (hybridoma of Table 6) (antibody, V domains shown) VH: QVQLVESGGGLVKPGGSLRLSCAASGFTFSDYYMTWIRQAPGKGLEWVSYISISGSITHYADSVKGRFTMSRDNAKNSLYLQMNSLRAEDTAVYYCARDGAAAGTDAFDIWGHGTKVTVSS VL: EIVMTQSPATLSVSPGDRATLSCRASQNVSSNLAWYQQKPGQAPRLLIFGASTRATGIPARFSGSGSGTEFTLTISSLQSEDFAVYYCQQYHYWPTFGPGTKVDIKR ; field requested: Avg OD
## Output 0.032

Hello, the source for this data is patent US20160311919A1, in case you need it.
